Values from patent US20180127503A1

# TARGET_ENTITY: T1, human ROR2 expressed on the cell surface (human, UniProt Q01974 34-943)
# T1 construct: Endogenous ROR2 of human tumour cell lines; also called cell surface ROR2; ROR2 on tumour cell lines
# ASSAY_REMARKS: flow cytometry, H69 cells (SCLC)
# Set-up: unit not given here
MEASURED_ATTRIBUTE: binding intensity

ROR2-27 full length human IgG1 antibody (antibody, V domains shown, also called clone #27; clone #027 IgG1) VH: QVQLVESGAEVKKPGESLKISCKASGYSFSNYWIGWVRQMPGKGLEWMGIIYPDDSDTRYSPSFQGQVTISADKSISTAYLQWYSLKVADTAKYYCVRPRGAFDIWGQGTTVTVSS VL: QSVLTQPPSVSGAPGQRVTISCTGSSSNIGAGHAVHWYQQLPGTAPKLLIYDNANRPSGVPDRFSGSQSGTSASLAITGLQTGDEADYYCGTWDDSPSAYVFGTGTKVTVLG ... 24
ROR2-241 full length human IgG1 antibody (antibody, V domains shown) VH: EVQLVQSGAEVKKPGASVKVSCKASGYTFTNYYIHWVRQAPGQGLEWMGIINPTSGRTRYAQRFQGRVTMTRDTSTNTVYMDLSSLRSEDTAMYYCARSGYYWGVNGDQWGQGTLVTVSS VL: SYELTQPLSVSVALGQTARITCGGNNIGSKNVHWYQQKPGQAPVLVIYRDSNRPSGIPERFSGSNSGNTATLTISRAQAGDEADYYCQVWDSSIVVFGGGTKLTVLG ... 131
ROR2-23 full length human IgG1 antibody (antibody, V domains shown, The light chain of clone 023 is labelled kappa; also called clone #23; clone #023 IgG1) VH: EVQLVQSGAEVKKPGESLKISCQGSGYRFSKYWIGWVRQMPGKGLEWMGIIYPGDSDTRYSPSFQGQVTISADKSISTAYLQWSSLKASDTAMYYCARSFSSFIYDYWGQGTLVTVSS VL: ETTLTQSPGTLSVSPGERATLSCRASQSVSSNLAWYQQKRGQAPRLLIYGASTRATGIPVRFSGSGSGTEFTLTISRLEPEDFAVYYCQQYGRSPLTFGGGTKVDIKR ... 9
ROR2-90 full length human IgG1 antibody (antibody, V domains shown, also called clone #90; antibody #90) VH: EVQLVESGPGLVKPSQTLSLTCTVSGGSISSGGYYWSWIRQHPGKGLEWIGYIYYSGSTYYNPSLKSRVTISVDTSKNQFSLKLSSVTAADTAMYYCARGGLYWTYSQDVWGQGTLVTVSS VL: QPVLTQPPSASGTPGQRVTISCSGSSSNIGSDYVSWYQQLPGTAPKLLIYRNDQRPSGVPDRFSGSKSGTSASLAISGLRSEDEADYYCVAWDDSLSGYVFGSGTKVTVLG ... 15

Read the next record carefully.
Input line: Give its binding intensity value. Item: ROR2-240 full length human IgG1 antibody (antibody, V domains shown, also called clone #240 IgG1) VH: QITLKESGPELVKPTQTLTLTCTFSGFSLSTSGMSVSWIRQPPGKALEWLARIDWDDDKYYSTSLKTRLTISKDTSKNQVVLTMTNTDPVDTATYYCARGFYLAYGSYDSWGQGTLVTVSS VL: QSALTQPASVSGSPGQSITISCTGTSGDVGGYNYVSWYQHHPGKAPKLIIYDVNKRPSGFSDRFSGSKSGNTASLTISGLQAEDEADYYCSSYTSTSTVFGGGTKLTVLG
Output line: 9
